target: human Claudin18.2 (human); test: cell-based or functional assay
Below is a list of entries, each paired with its recorded CDC % Relative activity value.
Response body: numeric value in %, unit text excluded.

Record excerpt, results attached:
[[record]]
binder = "241H10A1 (antibody, V domains shown) VH: QVQLQQSGAELVKPGASVKLSCKASGYTFTSFGINWLRQRPEQGLEWIGWIFPGDGNSKYNENFKGKATLTTDKSSSTAYMQVTRLTSEDSAVYFCARFYYGNSFANWGQGTLVTVSA VL: DIVMTQSPSSLTVTAGEKVTMSCKSSQSLLNSGNQKNYLTWYQQKPGQPPKLLIYWAATRESGVPDRFTGSGSGTDFTLTISSVQAEDLAVYYCQNDYFYPFTFGGGTKLELK"
reading_unit = "%"
measured_number = 625

[[record]]
binder = "268D7H9 (antibody, V domains shown) VH: QAYLQQSGAELVRSGASVKMSCKASGYTFTNYNIHWVKQTPGQGLEWIGYIYPGNGGNYYNQKFKGKATLTADTSSSTAYMQISSLTSEDSAVYFCARDYYGNSFAYWGQGTLVTVSA VL: DIAMTQSPSSLTVTAGEKVTMNCKSSQSLLNSGNQKNYLTWYQQKPGQPPKLLIYWASTRESGVPDRFTGSGSGTDFTLTISSVQAEDLAIYYCQNDYYYPLTFGAGTTLELK"
reading_unit = "%"
measured_number = 140

[[record]]
binder = "426H6E11 (antibody, V domains shown) VH: DVQLVESGGGLVQPGGSRKLSCAASGFTFSGFGMHWIRQTPEKGLEWVAYISSGSRPIYYADTVQGRFTISRDNPKNTLFLQMTSLRSEDTAMYFCARFYYGNSFDHWGQGTLVTVSS VL: DIVMTQFPSFLTVTAGEKVTMSCKSSQTLLNSGNQKNYLTWYQQKPGQPPKLLIYWASTRESGVPDRFTGSGSGTDFTLTISSVQAEDLALYYCQNAYSFPLTFGAGTNLELK"
reading_unit = "%"
measured_number = 80


// next item, CDC % Relative activity requested
Incoming: Name the recorded CDC % Relative activity for 275B2G2 (antibody, V domains shown) VH: EVMLVESGGGLVKPGGSLKLSCAASGFTFRDYTMSWVRQTPEKRLEWVATSIIGGTYTYYPDSVKGRFTISRDNVKNTLYLQMSSLRSEDTAMYYCSRLGRGNAMDYWGQGTSVTVSS VL: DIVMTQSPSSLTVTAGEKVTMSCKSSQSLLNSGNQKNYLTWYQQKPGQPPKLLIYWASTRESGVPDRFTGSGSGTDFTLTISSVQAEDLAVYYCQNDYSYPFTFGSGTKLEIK .
Outgoing: 98.4
